# targetSystem: T1, rat KLB (+N-ter FLAG) (rat, UniProt Q99N32 53-989 (mouse entry))
# T1 construct: expressed from KLB cDNA on HEK293T cells and read by FACS
# T1 chain: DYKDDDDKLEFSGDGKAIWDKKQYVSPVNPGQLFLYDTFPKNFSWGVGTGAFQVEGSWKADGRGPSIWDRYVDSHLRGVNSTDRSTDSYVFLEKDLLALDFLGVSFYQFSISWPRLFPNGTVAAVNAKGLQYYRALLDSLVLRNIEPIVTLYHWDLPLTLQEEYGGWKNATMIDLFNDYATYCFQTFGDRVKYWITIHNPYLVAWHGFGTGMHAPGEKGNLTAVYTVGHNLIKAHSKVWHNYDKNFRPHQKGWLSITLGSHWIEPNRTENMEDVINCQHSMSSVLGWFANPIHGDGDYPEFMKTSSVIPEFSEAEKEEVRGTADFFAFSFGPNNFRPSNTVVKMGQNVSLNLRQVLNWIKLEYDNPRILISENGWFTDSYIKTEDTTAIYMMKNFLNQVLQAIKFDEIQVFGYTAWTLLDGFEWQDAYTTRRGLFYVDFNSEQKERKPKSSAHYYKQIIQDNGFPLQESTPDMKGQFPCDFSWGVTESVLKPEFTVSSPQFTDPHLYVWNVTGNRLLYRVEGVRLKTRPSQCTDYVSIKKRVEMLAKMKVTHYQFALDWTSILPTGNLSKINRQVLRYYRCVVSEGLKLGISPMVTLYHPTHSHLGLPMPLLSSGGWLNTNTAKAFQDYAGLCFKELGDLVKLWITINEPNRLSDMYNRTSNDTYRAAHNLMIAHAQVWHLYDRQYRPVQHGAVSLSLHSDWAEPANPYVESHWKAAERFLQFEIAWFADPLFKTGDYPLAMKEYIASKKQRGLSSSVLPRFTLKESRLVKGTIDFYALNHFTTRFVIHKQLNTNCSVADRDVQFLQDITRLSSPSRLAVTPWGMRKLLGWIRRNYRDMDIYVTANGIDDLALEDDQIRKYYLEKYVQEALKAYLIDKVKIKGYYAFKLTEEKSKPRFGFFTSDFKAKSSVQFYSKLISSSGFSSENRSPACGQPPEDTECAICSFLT
# experimentalDetails: FACS on transfected HEK293T cells
measureName: binding result

Completed entries (count: 4):
8H7 (antibody, V domains shown, murine hybridoma-derived anti-KLB antibody) VH: QVQLQQPGAEIVKPGASVRLSCKASGYSFTSYWIHWVKQRPGQGLEWIGEIDPSVSNSNYNQKFKGKATLTADKSSSTAYMQLSGLTSEDSAVYFCVRLGVMVYGSSPFWFAYWGQGTLVTVSA VL: DIVMTQSQKFMSTSVGDRVSITCKASQFVSDAVAWYQQKPGQSPKLLICSASYRYTGVPDRFTGSGSGTDFTFTISSVRTEDLAVYYCQQHYIVPYTFGGGTTLEIE; no binding
8E1 (antibody, V domains shown, murine hybridoma-derived anti-KLB antibody) VH: EVQLQQSGAELVKPGASVKLSCTAADFNIKDTYMHWVKQRPEQGLEWIGRIDPSNGNAKYDPKFQGKASITADSSSNTAYLHLSSLTSEDTAVYYCASRALGNGYALGYWGQGTSVTVSS VL: DIQMTQSSSYLSVSLGGSVTITCKASDHINNWLAWYQQKPGNAPRLLIYGTTNLETGVPSRFSGSGSGRDYILSITSLQSEDVASYYCQQYWNTPFTFGSGTKLEIK; no binding
5F8 (antibody, V domains shown, murine hybridoma-derived anti-KLB antibody) VH: EVQLQQSGTELVRPGASVKLSCTSSDFNIKDTYIHWVKQRPEQGLDWLGRIDPANGNTKYDPKFQGKAAMTSDTSSNTAYLRLSSLTSEDTAVYYCASSGNYGAMDYWGQGTSVTVSS VL: ESVLTQSPALMSASLGEKVTMTCRASSSVNHMYWYQQKSDASPKLWIYYTSTLAPGVPARFSGSGSGNSYSLTISSMEGEDAATYYCQQFTISPSMYTFGGGTKLEIK; no binding
14C6 (antibody, V domains shown, murine hybridoma-derived anti-KLB antibody) VH: QIQLQQSGAELMKPGASVRMSCKASGYTFSSYWIEWVKQRSGHGLEWIGEIFPGGGSTIYNENFRDKATFTADTSSNTAYMQLSSLTSEDSAVYFCARRGYYDAAWFDYWGQGTLVTVSA VL: QIVLTQSPAIMSASPGERVTLTCSASSSLSSSYLYWYQQKPGSSPKLWIYGASNLASGVPGRFSGSGSGTSYSLTISSMEAEDAASYFCHQWSSYPLTFGSGTKLELK; binds

Now let's try a different one.
Reported binding result, binder 25F7 (antibody, V domains shown, murine hybridoma-derived anti-KLB antibody) VH: EVQLQQSGAELLKPGASVRLSCTASGFNIQDTFTHWVRQRPEQGLEWIGRIDPSNGNTKYDPKFQGKAKILADTSSNTAYLQLIGLTSEDTAVYYCASRALGNGYAMDYWGQGTSVTVSS VL: DIQMTQSSSYLSVSLGGRVTITCKASDHINNWLAWYQQKPGNAPRLLISGASNLETGIPSRFSGSGSGKDYTLTITSLQTEDVATYYCQQYWNTPFTFGSGTKLEIK : ____
no binding

Where do these numbers come from? They come from patent US20220064331A1.
